- Test system: A2780
- Test Method Notes: Resistance index, IC50 for doxorubicin-resistant human A2780 cells/IC50 for doxorubicin- sensitive human A2780 cells
- Type: ADME, cell-based
Catalogue of Ratio IC50 values
Measured Parameter: Ratio IC50

{"columns": ["Chem Smiles", "Result Value"],
 "data": [
  ["O=C1C2=C(C(=O)c3ccccc31)[C@]1(CS2)NC(=O)[C@@H]2CCCN2C1=O", 1.4],
  ["CSCC[C@@H]1NC(=O)[C@@]2(CSC3=C2C(=O)c2ccccc2C3=O)NC1=O", 2.5],
  ["O=C1C2=C(C(=O)c3ccccc31)[C@@]1(CS2)NC(=O)[C@H](CS)NC1=O", 6.3],
  ["O=C1C2=C(C(=O)c3ccccc31)[C@@]1(CS2)NC(=O)[C@@H]2CCCN2C1=O", 1.5],
  ["O=C1C2=C(C(=O)c3ccccc31)[C@]1(CS2)NC(=O)[C@H](CS)NC1=O", 2.1],
  ["CSCC[C@@H]1NC(=O)[C@]2(CSC3=C2C(=O)c2ccccc2C3=O)NC1=O", 2.5],
  ["O=C1C2=C(C(=O)c3ccccc31)[C@]1(CS2)NC(=O)[C@H]2CCCN2C1=O", 5.8]
]}

meta.source: ChEMBL document CHEMBL1143010
